Give measured Ki for each item. Keep answers brief.
# Experimental target: UniProtKB P03951
# Sequence (P03951 388-625 limits assumed): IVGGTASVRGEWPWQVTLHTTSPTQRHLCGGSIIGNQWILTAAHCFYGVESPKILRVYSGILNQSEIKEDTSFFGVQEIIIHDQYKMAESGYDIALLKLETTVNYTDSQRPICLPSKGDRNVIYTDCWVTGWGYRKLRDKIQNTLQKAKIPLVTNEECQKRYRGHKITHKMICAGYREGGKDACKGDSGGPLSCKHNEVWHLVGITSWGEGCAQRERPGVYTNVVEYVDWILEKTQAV
# Sequence (P03951 19-387 partner limits assumed): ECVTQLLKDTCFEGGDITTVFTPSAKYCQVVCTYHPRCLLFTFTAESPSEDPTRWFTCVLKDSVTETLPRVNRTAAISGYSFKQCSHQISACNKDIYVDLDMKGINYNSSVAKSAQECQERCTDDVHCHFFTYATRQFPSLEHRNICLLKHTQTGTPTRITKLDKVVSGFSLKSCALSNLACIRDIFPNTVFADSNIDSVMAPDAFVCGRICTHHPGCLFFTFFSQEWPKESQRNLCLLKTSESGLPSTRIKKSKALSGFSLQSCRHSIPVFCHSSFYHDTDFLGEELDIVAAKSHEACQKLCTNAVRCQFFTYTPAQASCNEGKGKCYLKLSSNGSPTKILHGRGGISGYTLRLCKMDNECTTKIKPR
Give bare numbers, in nM.

Some solved cases for reference:
                                   compound  experimental_target  reported_endpoint  unit_abbrev  value_observed
0  COC(=O)Nc1ccc(-c2cc([C@H](Cc3cscn3)NC(=O)/C=C/c3cc(Cl)ccc3-n3cnnn3)nnc2Cl)cc1     UniProtKB P03951                 Ki           nM              57
1  CCN1CCC(C[C@H](NC(=O)/C=C/c2cc(Cl)ccc2-n2cnnn2)c2cc(-c3ccc(NC(=O)OC)cc3)c(Cl)nn2)C1 (stereo partly shown)     UniProtKB P03951                 Ki           nM             327
2  COC(=O)Nc1ccc(-c2cc([C@H](Cc3ccccc3)NC(=O)/C=C/c3cc(Cl)ccc3-n3cnnn3)nn(C)c2=O)cc1     UniProtKB P03951                 Ki           nM             156
3  CCn1ccc(C[C@H](NC(=O)/C=C/c2cc(Cl)ccc2-n2cnnn2)c2cc(-c3ccc(NC(=O)OC)cc3)c(Cl)nn2)n1     UniProtKB P03951                 Ki           nM             9.4

Would you mind giving Ki for every compound in the list below?
1. COC(=O)Nc1ccc(-c2cc([C@H](CC3CCN(C(=O)OCc4ccccc4)C3)NC(=O)/C=C/c3cc(Cl)ccc3-n3cnnn3)n[nH]c2=O)cc1 (stereo partly shown)
2. CCOC(=O)Nc1ccc(-c2cc([C@H](Cc3ccccc3)NC(=O)/C=C/c3cc(Cl)ccc3-n3cnnn3)nnc2OCC)cc1
3. NC1CC1C(=O)Nc1ccc(-c2cnnc([C@H](Cc3ccccc3)NC(=O)/C=C/c3cc(Cl)ccc3-n3cnnn3)c2)cc1 (stereo partly shown)

Outgoing:
1. 5150
2. 405
3. 3330

Lab note: each compound below needs its Ki filled in.
1. COC(=O)Nc1ccc(-c2cc([C@H](Cc3cc4n(n3)CCCO4)NC(=O)/C=C/c3cc(Cl)ccc3-n3cnnn3)nnc2Cl)cc1
2. COC(=O)Nc1ccc(-c2cc(C(CC(=O)OC(C)(C)C)NC(=O)/C=C/c3cc(Cl)ccc3-n3cnnn3)c(Cl)nn2)cc1 (single isomer, unassigned)
3. COC(=O)Nc1ccc(-c2cc([C@H](CC3CN(C(=O)OC(C)(C)C)C3)NC(=O)/C=C/c3cc(Cl)ccc3-n3cnnn3)n[nH]c2=O)cc1

Outgoing:
17
2.9
503

Values were extracted from patent US8324199B2.
